TEST_SYSTEM: Hexose transporter 1 (Plasmodium falciparum) (UniProt O97467)
TEST_METHOD_NOTES: ST_JUDE_LEISH: Cytotoxicity at 2uM final concentration against transgenic Leishmania Mexicana promastigotes LmPfHT that are glucose transport deficient and complemented with the Plasmodium falciparum hexose transporter. Activity is measured by DNA content using SYBR green in vitro
Type: functional
ATTRIBUTE_MEASURED: inhibition (%)
Write the value in % as a bare number.

Some solved entries appear below for comparison.
N=C(N)NC(=O)Nc1cc(F)c(Cl)c(Cl)c1 = 10.5
CCOc1cc(C(=O)NCCN2CCCCC2)ccc1-c1nc2cc(Cl)ccc2[nH]1 = 1.42
CC(C)(C)c1ccc2[nH]c(-c3ccc(/C=C/C(=O)NCc4cccc(C(F)(F)F)c4)cc3)nc2c1 = 5.66
CC(CN(C)C)C(=O)Nc1ccc(-c2ccc(-c3nc4ccccc4[nH]3)s2)cc1 (configuration not stated) = 3.52
Cc1c(N=O)cc(C(C)(C)C)c(O)c1C(=O)Nc1ccc([N+](=O)[O-])cc1Cl = 5.18

Quickly give me recorded inhibition for O=C(NCCN1CCCCC1)c1ccc(CNC(=O)c2ccc(O)c(-c3cccc(C(F)(F)F)c3)c2)cc1 3.09

Quickly give me recorded inhibition for Clc1cc(Cl)cc(Nc2ccnc(Nc3cc(Cl)cc(Cl)c3)n2)c1 2.75

----------
TEST_SYSTEM: Hexose transporter 1 (Plasmodium falciparum)
TEST_METHOD_NOTES: ST_JUDE_LEISH: Cytotoxicity at 2uM final concentration against transgenic Leishmania Mexicana promastigotes LmPfHT that are glucose transport deficient and complemented with the Plasmodium falciparum hexose transporter. Activity is measured by DNA content using SYBR green in vitro
Assay type: functional
Reported inhibition values for a set of compounds
Write the value in % as a bare number.

Some solved entries appear below for comparison.
Cc1nc(C)c(-c2ccc(Sc3ccc(Cl)cc3)cc2)c(O)c1Br = -1.57
O=C1Nc2cccc3c2C1(CCCCCN1CCC(c2c[nH]c4ccncc24)CC1)CCC3 (configuration not stated) = 2.45
O=S(=O)(NCCN1CCCC1)c1ccc(-c2ccc(CNCc3ccsc3)cc2)cc1F = 1.33
COc1ccc2nccc([C@@H](O)CN3CCC(NC(=O)/C=C/c4ccnc5ccccc45)CC3)c2c1 = -1.62
CCCCN1CC[C@@H](CCC(O)c2ccnc3ccc(OCCC(C)C)cc23)[C@@H](CC)C1 (some centres not stated) = 4.04

Quickly give me recorded inhibition for COc1ccccc1C1CN(CCNC(=O)c2nc(C)c[nH]2)Cc2ccccc2O1 (configuration not stated) 2.02

Quickly give me recorded inhibition for CN1CCN(c2ccnc3ccc(NC(=O)Cc4ccc(Br)c5ccccc45)cc23)CC1 0.37

Quickly give me recorded inhibition for N=C(N)NN=Cc1ccc2c(ccc3ccccc32)c1 8.19

Quickly give me recorded inhibition for CCN(CC)CCN(Cc1ccc(-c2ccc(C#N)cc2)cc1)C(=O)Cn1c(CCc2cccc(F)c2F)nc(=O)c2ccccc21 0.54

Quickly give me recorded inhibition for Nc1nnc(-c2ccc(Cl)c(Br)c2)c(N)n1 1.8

----------
TEST_SYSTEM: Solute carrier family 2, facilitated glucose transporter member 1 (Homo sapiens)
TEST_METHOD_NOTES: ST_JUDE_LEISH: Cytotoxicity at 2uM final concentration against transgenic Leishmania Mexicana promastigotes LmGLUT1 that are glucose transport deficient and complemented with the human glucose transporter GLUT1. Activity is measured by DNA content using SYBR green in vitro
Format: functional
Reported inhibition values for a set of molecules
Write the value in % as a bare number.

COc1ccccc1NC(=O)Nc1ccc(-c2ccc(-c3nc4cccc(C)c4[nH]3)s2)cc1 = 3.53

Quickly give me recorded inhibition for CC(C)(C)OC(=O)NCc1ccc(Nc2nnc(-c3ccc(OCC(=O)NCc4ccc(C(C)(C)C)cc4)c([N+](=O)[O-])c3)o2)cc1 2.12

Quickly give me recorded inhibition for Cc1cccc2nc(-c3cccc(-c4ccc(NC(=O)Nc5ccc(Cl)c(Cl)c5)cc4)c3)[nH]c12 0.3
